Hello, the source for this data is the supplement of paper PMC10338343, in case you need it.

Test system: MIWI (PIWIL1) piRISC loaded with piRNA #2 (30 nt);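 also: 1 nM active piRISC with 0.1 nM target library at 33 °C single turnover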
Test: pre-steady-state target cleavage rate (min^-1); MIWI and MILI are mouse PIWI proteins and EfPiwi is from a freshwater sponge; tags in brackets are library labels; higher = faster piRNA-guided slicing of the target;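 also: 1 nM active piRISC with 0.1 nM target library at 33 °C single turnover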
Details: guide: piRNA #2 5'p-UUAGGUAACCCAGUAGAUCCAGAGGAAUUC; auxiliary factor: 500 nM mouse GTSF1
The full ranking holds about 5,500 sequences; the median of “pre-steady-state target cleavage rate” is about 0.1, and the highest 2% start at about 0.64. The list comes from a sample in which the highest values are over-represented; it also holds close analogues and randomly drawn sequences.
Kind request: treat 0.4 as inclusive, so pre-steady-state target cleavage rate at 0.4 or higher is met, anything lower is not met.

Solved entries (count: 5):
CUUUUCCUCUGGAUCUACUGGGUUACAUAA | met
GAAUUCCUCUGCAUCUACUGCGUUACCUAA | met
CUAUUCCUCUGGAUCUACUGGGUUAGCCUAA | met
CUAUUCCUCUGGAUCUACUGGGUUACCUAA [g2:g28:cont:t1A] | not met
CUAUUCCUCUGAGAUCUACUGGGUUACCUAA | met

Could you verify whether the entry CUUAACCUCUCGAUCUACUGGGUUACGUAA shows pre-steady-state target cleavage rate of no less than 0.4?
met

Does pre-steady-state target cleavage rate meet or surpass 0.4 for CAAAUCCUCUCGAUCUACUGGGUUACCUAA ?
met
